TEST SYSTEM: human PCNA (Homo sapiens, UniProt P12004)
Sequence (P12004 whole entry): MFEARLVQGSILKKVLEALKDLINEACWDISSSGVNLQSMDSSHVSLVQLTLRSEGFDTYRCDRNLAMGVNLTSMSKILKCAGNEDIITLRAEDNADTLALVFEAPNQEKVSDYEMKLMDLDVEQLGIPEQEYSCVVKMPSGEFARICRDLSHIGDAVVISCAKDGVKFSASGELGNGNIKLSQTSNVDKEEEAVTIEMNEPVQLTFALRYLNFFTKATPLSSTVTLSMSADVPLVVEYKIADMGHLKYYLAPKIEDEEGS
ASSAY OVERVIEW: ITC, PCNA injected into peptide
Assay type: binding
STUDY CONDITIONS: 10 mM HEPES, 150 mM NaCl, 1 mM EDTA, 1 mM TCEP, pH 7.4, 25 °C, one set of sites, mean of triplicates
MEASUREMENT KIND: Kd (µM)
Answers are plain numbers, in µM.

*Q* Find the recorded Kd belonging to Ac-SESSQTSMTDFYHSKRRL-NH2 [S1] and report it.
*A* 8.3

Origin of measurements: paper PMC6881253
